molecular target: CFTR (Homo sapiens); test: Membrane Potential Dye, Enteroid Assay B; format: cell-based; conditions: read-out: Ent. B EC50
Sequence (P13569 with tags, fused parts or gaps DEL508-508): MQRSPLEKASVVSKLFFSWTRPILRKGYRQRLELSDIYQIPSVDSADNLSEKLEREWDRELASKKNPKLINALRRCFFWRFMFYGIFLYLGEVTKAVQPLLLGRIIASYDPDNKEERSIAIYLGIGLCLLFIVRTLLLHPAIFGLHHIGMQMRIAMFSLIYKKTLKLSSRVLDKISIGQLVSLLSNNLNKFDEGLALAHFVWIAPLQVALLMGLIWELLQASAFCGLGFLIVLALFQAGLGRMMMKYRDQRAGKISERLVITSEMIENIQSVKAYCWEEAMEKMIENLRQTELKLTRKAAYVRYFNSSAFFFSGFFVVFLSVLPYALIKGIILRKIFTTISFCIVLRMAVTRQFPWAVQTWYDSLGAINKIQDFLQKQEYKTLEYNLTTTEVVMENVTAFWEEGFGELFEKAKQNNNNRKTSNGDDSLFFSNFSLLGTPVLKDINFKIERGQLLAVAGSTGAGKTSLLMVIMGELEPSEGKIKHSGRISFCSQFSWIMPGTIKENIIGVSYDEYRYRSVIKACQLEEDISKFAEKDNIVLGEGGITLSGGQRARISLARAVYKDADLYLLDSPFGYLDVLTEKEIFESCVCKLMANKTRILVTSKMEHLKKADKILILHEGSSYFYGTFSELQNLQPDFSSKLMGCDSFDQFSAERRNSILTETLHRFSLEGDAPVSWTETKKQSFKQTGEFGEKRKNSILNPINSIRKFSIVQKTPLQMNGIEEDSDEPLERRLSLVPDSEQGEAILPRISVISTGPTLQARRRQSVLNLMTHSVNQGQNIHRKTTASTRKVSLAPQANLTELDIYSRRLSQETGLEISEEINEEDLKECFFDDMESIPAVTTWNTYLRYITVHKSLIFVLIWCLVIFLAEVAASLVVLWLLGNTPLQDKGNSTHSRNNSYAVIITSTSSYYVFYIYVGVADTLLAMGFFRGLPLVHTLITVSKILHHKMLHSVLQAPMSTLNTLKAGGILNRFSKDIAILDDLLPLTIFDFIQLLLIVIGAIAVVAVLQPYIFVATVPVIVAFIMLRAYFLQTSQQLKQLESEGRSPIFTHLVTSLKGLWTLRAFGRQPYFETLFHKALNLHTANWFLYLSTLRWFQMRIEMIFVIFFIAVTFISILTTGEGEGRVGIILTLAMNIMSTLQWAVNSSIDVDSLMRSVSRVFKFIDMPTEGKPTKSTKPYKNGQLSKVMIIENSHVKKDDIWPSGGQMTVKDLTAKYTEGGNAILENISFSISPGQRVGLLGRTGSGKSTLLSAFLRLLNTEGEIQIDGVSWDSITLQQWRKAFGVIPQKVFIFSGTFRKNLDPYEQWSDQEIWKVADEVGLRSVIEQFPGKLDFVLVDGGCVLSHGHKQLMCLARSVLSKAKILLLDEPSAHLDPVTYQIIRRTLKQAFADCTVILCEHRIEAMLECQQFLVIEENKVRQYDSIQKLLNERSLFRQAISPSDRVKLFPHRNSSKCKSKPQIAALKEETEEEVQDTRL
Measured EC50 values are reported for all entries that follow.

Cc1cccc(C)c1-c1cc2nc(n1)NS(=O)(=O)c1cccc(c1)C(=O)N(C1CC(C(=O)N3CCOCC3)C1)[C@H](CC(C)C)CO2 (stereo partly drawn) | < 1000 nM

Challenge: Return reported EC50; argument: Cc1cccc(C)c1-c1cc2nc(n1)NS(=O)(=O)c1cccc(c1)C(=O)N(C1CN(C3CC4(CC4)C3)C1)[C@H](CC(C)C)CO2
Response given: < 1000 nM

Challenge: Return reported EC50; argument: Cc1cccc(C)c1-c1cc2nc(n1)NS(=O)(=O)c1cccc(c1)C(=O)N([C@H]1C[C@@H](C#N)C1)[C@H](CC(C)C)CO2 (stereo in doubt)
Response given: < 1000 nM

###

molecular target: CFTR (Homo sapiens); test: Membrane Potential Dye, Enteroid Assay B; type: cell-based
reported_property: Ent. B Max Activity (%)

Worked set:
Cc1cccc(C)c1-c1cc2nc(n1)NS(=O)(=O)c1cccc(c1)C(=O)N(C1CN(C(=O)OCc3ccccc3)C1)[C@H](CC(C)C)CO2 | +++ (+++ is >60%)
[H][C@]1(N2C(=O)c3cccc(c3)S(=O)(=O)Nc3nc(cc(-c4c(C)cccc4C)n3)OC[C@H]2CC2(C(F)(F)F)CC2)C[C@@]2(C[C@H](N(C)C)C2)C1 (some centres unmarked) [Compound 298] | +++ (+++ is >60%)
Cc1cccc(C)c1-c1cc2nc(n1)NS(=O)(=O)c1cccc(c1)C(=O)N(C1CC3(CCN(CCOC(C)C)CC3)C1)[C@H](CC1(C(F)(F)F)CC1)CO2 | +++ (+++ is >60%)
COCCN1CCC2(CC1)CC(N1C(=O)c3cccc(c3)S(=O)(=O)Nc3nc(cc(-c4c(C)cccc4C)n3)OC[C@H]1CC(C)C)C2 | +++ (+++ is >60%)
Cc1cccc(C)c1-c1cc2nc(n1)NS(=O)(=O)c1cccc(c1)C(=O)N([C@H]1CC3(C[C@H](C(=O)N(C)C)C3)C1)[C@H](CC(C)C)CO2 (some centres unmarked) | +++ (+++ is >60%)
Cc1cccc(C)c1-c1cc2nc(n1)NS(=O)(=O)c1cccc(c1)C(=O)N([C@H]1C[C@@H](NC(=O)OC(C)C)C1)[C@H](CC(C)C)CO2 (single isomer, unassigned) [Compound 64] | +++ (+++ is >60%)
CC(C)C[C@@H]1COc2cc(C3CCCCC3(C)C)nc(n2)NS(=O)(=O)c2cccc(c2)C(=O)N1C1CC2(CCN(C)CC2)C1 (some centres unmarked) | +++ (+++ is >60%)
Cc1cccc(C)c1-c1cc2nc(n1)NS(=O)(=O)c1cccc(c1)C(=O)N(C1CC3(CC3)C1)CC(C(C)C)O2 (centres unmarked) | ++ (++ is 30-60%)

Challenge: Return reported Ent. B Max Activity (%); argument: Cc1cccc(C)c1-c1cc2nc(n1)NS(=O)(=O)c1cccc(c1)C(=O)N(C1CN(C(=O)OC(C)(C)C)C1)[C@H](CC(C)C)CO2
Response given: ++ (++ is 30-60%)

Challenge: Return reported Ent. B Max Activity (%); argument: Cc1cccc(C)c1-c1cc2nc(n1)NS(=O)(=O)c1cccc(c1)C(=O)N(C1CC3(C1)CN(C(=O)OC(C)C)C3)[C@H](CC(C)C)CO2
Response given: +++ (+++ is >60%)

Challenge: Return reported Ent. B Max Activity (%); argument: Cc1cccc(C)c1-c1cc2nc(n1)NS(=O)(=O)c1cccc(c1)C(=O)N([C@H]1CCN(C)C1)[C@H](CC(C)C)CO2 (stereo in doubt) [Compound 295]
Response given: +++ (+++ is >60%)
